test system: MDA-MB-436; assay: normalised viability (% of control), CellTiter-Blue; higher = more viable cells (about 100 = DMSO control); conditions: 100 nM; incubation time: 72 h

- moleculeSmiles: "COc1ccc(S(=O)(=O)Nc2cccnc2Nc2ccc(O)cc2)cc1"
  studySystem: "MDA-MB-436"
  normalised viability, %: 108
- moleculeSmiles: "CO[C@@H]1[C@H](N(C)C(=O)c2ccccc2)C[C@H]2O[C@]1(C)n1c3ccccc3c3c4c(c5c6ccccc6n2c5c31)C(=O)NC4"
  studySystem: "MDA-MB-436"
  normalised viability, %: 85.6
- moleculeSmiles: "Cn1cc(C2=C(c3cn(C4CCN(Cc5ccccn5)CC4)c4ccccc34)C(=O)NC2=O)c2ccccc21"
  studySystem: "MDA-MB-436"
  normalised viability, %: 84.9
- moleculeSmiles: "C=CCN(/C=C1/C(=O)O[C@H](COC)[C@@]2(C)C1=C(O)C(=O)C1=C2[C@H](OC(C)=O)C[C@]2(C)C(=O)CC[C@@H]12)CC=C"
  studySystem: "MDA-MB-436"
  normalised viability, %: 102

* * *

test system: CAL-148; test: normalised viability (% of control), CellTiter-Blue; higher = more viable cells (about 100 = DMSO control); conditions: 30 nM; incubation time: 72 h
measurementName: normalised viability

- compound: "CN(Cc1cnc2nc(N)nc(N)c2n1)c1ccc(C(=O)N[C@@H](CCC(=O)O)C(=O)O)cc1 [Methotrexate]"
  studySystem: "CAL-148"
  result: "91.5%"
- compound: "C=CCn1c(=O)c2cnc(Nc3ccc(N4CCN(C)CC4)cc3)nc2n1-c1cccc(C(C)(C)O)n1"
  studySystem: "CAL-148"
  result: "92.8%"
- compound: "COc1cc(Nc2c(C#N)cnc3cc(OCCCN4CCN(C)CC4)c(OC)cc23)c(Cl)cc1Cl"
  studySystem: "CAL-148"
  result: "92.3%"
- compound: "C=CCN(/C=C1/C(=O)O[C@H](COC)[C@@]2(C)C1=C(O)C(=O)C1=C2[C@H](OC(C)=O)C[C@]2(C)C(=O)CC[C@@H]12)CC=C"
  studySystem: "CAL-148"
  result: "105%"

* * *

tested on: MFM-223; test: drug sensitivity score (DSS), CellTiter-Blue viability (DSS (AUC-based score)); higher = stronger viability inhibition; extreme values may be limits of the assay; conditions: incubation time: 72 h

- compound: "CN(Cc1cnc2nc(N)nc(N)c2n1)c1ccc(C(=O)N[C@@H](CCC(=O)O)C(=O)O)cc1 [Methotrexate]"
  drug sensitivity score: 0
- compound: "CCNC(=O)c1noc(-c2cc(C(C)C)c(O)cc2O)c1-c1ccc(CN2CCOCC2)cc1 [NVP-AUY922]"
  drug sensitivity score: 20.9
- compound: "COc1ccc(S(=O)(=O)Nc2cccnc2Nc2ccc(O)cc2)cc1 [ABT-751]"
  drug sensitivity score: 8.15
- compound: "CCN(CC)CCCC(C)Nc1ccnc2cc(Cl)ccc12 (stereo not given) [Chloroquine]"
  drug sensitivity score: 0
- compound: "CC[C@H](CO)Nc1nc(NCc2ccccc2)c2ncn(C(C)C)c2n1 [Roscovitine]"
  drug sensitivity score: 0

* * *

Below, each of the compounds is paired with its reported normalised viability value.
test system: MDA-MB-468; assay: normalised viability (% of control), CellTiter-Blue; higher = more viable cells (about 100 = DMSO control); settings: 1000 nM; incubation time: 72 h

- compound: "CO[C@@]12[C@H](COC(N)=O)C3=C(C(=O)C(C)=C(N)C3=O)N1C[C@@H]1N[C@@H]12"
  normalised viability / %: 78.5
- compound: "CN(Cc1cnc2nc(N)nc(N)c2n1)c1ccc(C(=O)N[C@@H](CCC(=O)O)C(=O)O)cc1 [Methotrexate]"
  normalised viability / %: 41.5
- compound: "CO[C@@H]1[C@H](N(C)C(=O)c2ccccc2)C[C@H]2O[C@]1(C)n1c3ccccc3c3c4c(c5c6ccccc6n2c5c31)C(=O)NC4"
  normalised viability / %: 46.6
- compound: "CC(C)(C)NC(=O)[C@H]1CC[C@H]2[C@@H]3CC[C@H]4NC(=O)C=C[C@]4(C)[C@H]3CC[C@]12C [Finasteride]"
  normalised viability / %: 99.2
